Just for reference, patent US8822517B2 is where these values come from.

- Tested on: sigma σ receptor
- METHOD: Binding assay σ (non-selective), [3H]DTG, rat cerebral cortex
- REPORTED CONDITIONS: percent inhibition of control specific binding; compounds tested at 1×10^−6 M
# maps each entry to its σ [%]

MOLECULE SMILES: O=S(=O)(NCCCN1CCN(c2nsc3ccccc23)CC1)c1ccc2c(c1)OCO2
σ [%]: 49%
//
MOLECULE SMILES: O=S(=O)(NCCCN1CCN(c2nsc3ccccc23)CC1)c1cc2ccccc2s1
σ [%]: 51%
//
MOLECULE SMILES: O=S(=O)(NCCCN1CCN(c2nsc3ccccc23)CC1)c1cccc(Cl)c1
σ [%]: 64%
//
MOLECULE SMILES: O=S(=O)(NCCCCN1CCN(c2nsc3ccccc23)CC1)c1cccc2ccccc12
σ [%]: 54%
//
MOLECULE SMILES: O=S(=O)(NCCCCN1CCC(c2noc3cc(F)ccc23)CC1)c1ccc2cc(Cl)ccc2c1
σ [%]: 55%
//
MOLECULE SMILES: O=S(=O)(NCCN1CCC(c2noc3cc(F)ccc23)CC1)c1cccc2ccccc12
σ [%]: 82%
//
MOLECULE SMILES: O=S(=O)(NCCCCN1CCN(c2nsc3ccccc23)CC1)c1ccc(F)c(Cl)c1
σ [%]: 54%
//
MOLECULE SMILES: Cc1cccc(S(=O)(=O)NCCCCN2CCC(c3noc4cc(F)ccc34)CC2)c1
σ [%]: 92%

* * *

- Tested on: adrenergic α1 receptor
- METHOD: Binding assay α1 (non-selective), [3H]prazosin, rat cerebral cortex
- REPORTED CONDITIONS: percent inhibition of control specific binding; compounds tested at 1×10^−6 M
- Method: The specific ligand binding to the receptors is defined as the difference between the total binding and the nonspecific binding determined in the presence of an excess of so unlabelled ligand. The specific Ligand binding to the receptor is defined as the difference between total and non-specific binding determined in the presence of an excess of unlabelled ligand. The compounds were tested at a concentration of 1×10^−6 M, and scintillation counting was the method of detection of ligand binding.
# maps each entry to its α1 [%]
PARAMETER: α1 [%] (%)

COMPOUND: CC(C)(C)c1ccc(S(=O)(=O)NCCCN2CCC(c3noc4cc(F)ccc34)CC2)cc1 [Compound 333]
RECORDED NUMBER: 106
//
COMPOUND: Cc1cccc(S(=O)(=O)NCCCN2CCC(c3noc4cc(F)ccc34)CC2)c1 [Compound 22]
RECORDED NUMBER: 100
//
COMPOUND: O=S(=O)(NCCCCN1CCN(c2cccc3[nH]ccc23)CC1)c1ccccc1 [Compound 27]
RECORDED NUMBER: 96
//
COMPOUND: O=S(=O)(NCCCCN1CCN(c2nsc3ccccc23)CC1)c1cccc(C(F)(F)F)c1 [Compound 235]
RECORDED NUMBER: 95
//
COMPOUND: Cc1cc(S(=O)(=O)NCCCN2CCC(c3noc4cc(F)ccc34)CC2)c(C)s1 [Compound 342]
RECORDED NUMBER: 103
//
COMPOUND: N#Cc1cccc(S(=O)(=O)NCCCN2CCC(c3noc4cc(F)ccc34)CC2)c1 [Compound 338]
RECORDED NUMBER: 99
//
COMPOUND: O=S(=O)(NCCCN1CCN(c2cccc3c2OCCO3)CC1)c1ccc2cc(Cl)ccc2c1 [Compound 407]
RECORDED NUMBER: 72
//
COMPOUND: O=S(=O)(NCCCCN1CCN(c2cccc3c2OCCO3)CC1)c1cc2ccccc2s1 [Compound 399]
RECORDED NUMBER: 99

* * *

- TESTED SYSTEM: serotonine transporter (SERT) receptor (Homo sapiens)
- Construct: expressed in transfected cells; host or cells: CHO cells
- Sequence (P31645 whole entry): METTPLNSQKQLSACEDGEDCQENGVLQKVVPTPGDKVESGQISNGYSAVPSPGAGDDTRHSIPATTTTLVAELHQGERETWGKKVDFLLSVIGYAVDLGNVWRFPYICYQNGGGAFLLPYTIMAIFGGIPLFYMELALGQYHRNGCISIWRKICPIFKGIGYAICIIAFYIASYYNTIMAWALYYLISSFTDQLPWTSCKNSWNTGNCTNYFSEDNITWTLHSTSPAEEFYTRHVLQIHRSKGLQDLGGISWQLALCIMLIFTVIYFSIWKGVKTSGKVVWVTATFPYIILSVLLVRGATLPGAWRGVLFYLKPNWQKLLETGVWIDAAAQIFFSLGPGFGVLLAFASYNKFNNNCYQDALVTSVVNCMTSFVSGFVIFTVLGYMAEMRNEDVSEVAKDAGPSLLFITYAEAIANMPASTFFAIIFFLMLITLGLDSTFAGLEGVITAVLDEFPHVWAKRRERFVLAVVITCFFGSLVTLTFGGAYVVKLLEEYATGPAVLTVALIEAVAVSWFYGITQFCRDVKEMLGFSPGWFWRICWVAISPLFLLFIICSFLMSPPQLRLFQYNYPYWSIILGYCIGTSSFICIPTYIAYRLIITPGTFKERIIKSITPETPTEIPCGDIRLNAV
- METHOD: Binding assay SERT (h), [3H]imipramine, CHO cells
- REPORTED CONDITIONS: read-out: SERT [%]
Quick rule: inhibition at 1 µM of at least 20% means fulfilled, below that means not fulfilled.

MOLECULE SMILES: N#Cc1cccc(S(=O)(=O)NCCCN2CCN(c3nsc4ccccc34)CC2)c1
QUALITATIVE LABEL: fulfilled
--
MOLECULE SMILES: O=S(=O)(NCCCCN1CCN(c2nsc3ccccc23)CC1)c1ccc2c(c1)OCO2
QUALITATIVE LABEL: fulfilled
--
MOLECULE SMILES: O=S(=O)(NCCCN1CCN(c2nsc3ccccc23)CC1)c1cnc2ccccn12
QUALITATIVE LABEL: not fulfilled
--
MOLECULE SMILES: N#Cc1ccc(S(=O)(=O)NCCCCN2CCC(c3noc4cc(F)ccc34)CC2)cc1
QUALITATIVE LABEL: not fulfilled
--
MOLECULE SMILES: Cc1[nH]c2ccc(Cl)cc2c1C1=CCN(CCCCNS(=O)(=O)c2cccc(F)c2)CC1
QUALITATIVE LABEL: not fulfilled
--
MOLECULE SMILES: O=S(=O)(NCCCN1CCN(c2cccc3c2OCCO3)CC1)c1ccc(-c2ccccc2)cc1
QUALITATIVE LABEL: not fulfilled
--
MOLECULE SMILES: Cc1[nH]c2ccc(Cl)cc2c1C1=CCN(CCNS(=O)(=O)c2cccc(Cl)c2)CC1
QUALITATIVE LABEL: not fulfilled
--
MOLECULE SMILES: O=S(=O)(NCCCN1CCC(c2noc3cc(F)ccc23)CC1)c1cc2ccc(Cl)cc2s1
QUALITATIVE LABEL: fulfilled
--
MOLECULE SMILES: O=S(=O)(NCCCCN1CCN(c2nsc3ccccc23)CC1)c1ccc(Cl)c(Cl)c1
QUALITATIVE LABEL: not fulfilled
--
MOLECULE SMILES: O=S(=O)(NCCCCN1CCC(c2noc3cc(F)ccc23)CC1)c1ccc(Br)cc1
QUALITATIVE LABEL: fulfilled
--
MOLECULE SMILES: Cc1cc(S(=O)(=O)NCCCCN2CCC(c3noc4cc(F)ccc34)CC2)c(C)s1
QUALITATIVE LABEL: not fulfilled
--
MOLECULE SMILES: O=S(=O)(NCCCCN1CCN(c2noc3ccccc23)CC1)c1ccc2cc(Cl)ccc2c1
QUALITATIVE LABEL: not fulfilled
--
MOLECULE SMILES: O=S(=O)(NCCCCN1CCC(c2noc3cc(F)ccc23)CC1)c1cc2ccc(Cl)cc2s1
QUALITATIVE LABEL: fulfilled
--
MOLECULE SMILES: O=S(=O)(NCCCN1CCN(c2cccc3c2OCCO3)CC1)c1csc2ccccc12
QUALITATIVE LABEL: not fulfilled
--
MOLECULE SMILES: O=C1COc2c(cccc2N2CCN(CCCCNS(=O)(=O)c3ccc(Cl)s3)CC2)N1
QUALITATIVE LABEL: not fulfilled
--
MOLECULE SMILES: Cc1[nH]c2ccc(Cl)cc2c1C1=CCN(CCNS(=O)(=O)c2cccc(F)c2)CC1
QUALITATIVE LABEL: fulfilled
--
MOLECULE SMILES: O=S(=O)(NCCCCN1CCN(c2cccc3[nH]ccc23)CC1)c1cc2ccccc2s1
QUALITATIVE LABEL: not fulfilled

* * *

- Test system: sigma σ receptor
- METHOD: Binding assay σ (non-selective), [3H]DTG, rat cerebral cortex
- REPORTED CONDITIONS: percent inhibition of control specific binding; compounds tested at 1×10^−6 M
- Description: The specific ligand binding to the receptors is defined as the difference between the total binding and the nonspecific binding determined in the presence of an excess of so unlabelled ligand. The specific Ligand binding to the receptor is defined as the difference between total and non-specific binding determined in the presence of an excess of unlabelled ligand. The compounds were tested at a concentration of 1×10^−6 M, and scintillation counting was the method of detection of ligand binding.

COMPOUND: O=S(=O)(NCCCCN1CCC(c2noc3cc(F)ccc23)CC1)c1cc2ccccc2o1 [Compound 316]
σ [%]: 81%

COMPOUND: N#Cc1cccc(S(=O)(=O)NCCCN2CCN(c3nsc4ccccc34)CC2)c1 [Compound 74]
σ [%]: 34%

COMPOUND: O=c1[nH]c2ccc(S(=O)(=O)NCCCCN3CCN(c4noc5ccccc45)CC3)cc2o1 [Compound 16]
σ [%]: 2%

COMPOUND: O=S(=O)(NCCCCN1CCN(c2noc3ccccc23)CC1)c1ccc(-c2ccccc2)cc1 [Compound 283]
σ [%]: 34%

COMPOUND: O=c1[nH]c2ccc(S(=O)(=O)NCCCN3CCN(c4nsc5ccccc45)CC3)cc2o1 [Compound 8]
σ [%]: 17%

COMPOUND: O=S(=O)(NCCCN1CCN(c2nsc3ccccc23)CC1)c1ccc(-c2ccccc2)cc1 [Compound 260]
σ [%]: 41%

COMPOUND: O=S(=O)(NCCCN1CCN(c2nsc3ccccc23)CC1)c1cccc(C(F)(F)F)c1 [Compound 258]
σ [%]: 61%

COMPOUND: O=S(=O)(NCCCCN1CCN(c2cccc3[nH]ccc23)CC1)c1cc2ccccc2s1 [Compound 33]
σ [%]: 94%
